measuredOn: HLA-DR DRB1*0404 (human)
measurementProtocol: competition with 125I-labelled peptide for purified HLA-DR
assayEndpoint: pIC50
Numbers only, as −log10 of the molar value.

Supply recorded pIC50 for RREVHIYYLEKANKI (modifications not checked) [Flu.PA.127] here. 6.74
